I'd appreciate it if you could supply Solution physical property index (corresponding HLB) from calibration curve 10 values for the items below.
assayRemarks: Amount of phase-changing probe 2-EHDG required until phase structure changes (Wm phase to Om phase + W phase); liquid physical property index read from calibration curve
Format: physicochemical
experimentalParameters: surfactant 100 mmol/kg; solvent BDG 5 mass %; C16 isoparaffin 2 g per 100 g; no inorganic salt
Simply state the number, no unit and no words.

// sample CCCCCCCCCCCC[N+](C)(C)Cc1ccccc1.[Cl-] [Lauryldimethylbenzylammonium chloride] , its Solution physical property index (corresponding HLB) from calibration curve 10 was 13.97

Reported Solution physical property index (corresponding HLB) from calibration curve 10 of CCCCCCCCCCCCCC[N+](C)(C)[O-] [Myristyl dimethylamine oxide] : 11.60

Value of Solution physical property index (corresponding HLB) from calibration curve 10 reported for the compound CCCCCCCCCCCCCCCC[N+](C)(C)C.[Cl-] [Palmityltrimethylammonium chloride] is 13.45

Form field Solution physical property index (corresponding HLB) from calibration curve 10, entry CCCCCCCCCCCC[N+](C)(C)C.[Cl-] [Lauryltrimethylammonium chloride] : 14.25

Given item CCCCC(CC)COC(=O)CC(C(=O)OCC(CC)CCCC)S(=O)(=O)[O-].[Na+] (stereo not drawn) [Sodium di-2-ethylhexylsulfosuccinate] , the value recorded as its Solution physical property index (corresponding HLB) from calibration curve 10 is 11.93

The compound listed as CCCCCCCC[N+](C)(C)Cc1ccccc1.[Cl-] [Octyldimethylbenzylammonium chloride] shows Solution physical property index (corresponding HLB) from calibration curve 10 equal to 13.48

###

Would you mind telling me the reported Quantitative value (g) of phase-changing probe (2-EHDG) of each entry?
assayRemarks: Amount of phase-changing probe 2-EHDG required until phase structure changes (Wm phase to Om phase + W phase); liquid physical property index read from calibration curve
Assay type: physicochemical
experimentalParameters: surfactant 100 mmol/kg; solvent BDG 5 mass %; C16 isoparaffin 2 g per 100 g; 25° C.; calibration curve 10; no inorganic salt
Give the number; g is assumed, so skip it.

Field Quantitative value (g) of phase-changing probe (2-EHDG) (entry CCCCCCCC[N+](C)(C)Cc1ccccc1.[Cl-] [Octyldimethylbenzylammonium chloride] ) reads 9.20

Recorded Quantitative value (g) of phase-changing probe (2-EHDG) (compound CCCCCCCCCCCC[N+](C)(C)Cc1ccccc1.[Cl-] [Lauryldimethylbenzylammonium chloride] ): 10.36

The compound listed as CCCCCCCCCCCCCCCC[N+](C)(C)C.[Cl-] [Palmityltrimethylammonium chloride] shows Quantitative value (g) of phase-changing probe (2-EHDG) equal to 9.12

Value of Quantitative value (g) of phase-changing probe (2-EHDG) reported for the compound CCCCCCCCCCCC[N+](C)(C)C.[Cl-] [Lauryltrimethylammonium chloride] is 11.04

Record summary for CCCCC(CC)COC(=O)CC(C(=O)OCC(CC)CCCC)S(=O)(=O)[O-].[Na+] (stereo not shown) [Sodium di-2-ethylhexylsulfosuccinate] : reported Quantitative value (g) of phase-changing probe (2-EHDG) = 5.50

Sure, the documented Quantitative value (g) of phase-changing probe (2-EHDG) for CCCCCCCCCCCCCC[N+](C)(C)[O-] [Myristyl dimethylamine oxide] is 4.72

Form field Quantitative value (g) of phase-changing probe (2-EHDG), entry CCCCCCCCCCCC[N+](C)(C)CC(O)CS(=O)(=O)[O-] (stereo not shown) : 3.60
